These data points were gathered from the supplement of paper PMC6755084.

B1: minF1; the commonest letter at each place (parent)
chain: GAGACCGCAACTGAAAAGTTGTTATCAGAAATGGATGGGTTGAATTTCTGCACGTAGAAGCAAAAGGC

Variants of: B1
test-description: fraction ligated after 30 min (ligated reads / total reads); higher = more ligase activity
protocol-conditions: with F1*subA RNA substrate (template-directed ligation), 42 °C
Where fraction ligated equals or exceeds 0.01, the correct label is Satisfied; where it does not, the label is Not satisfied.

[
  {
    "variant-annotation": "G28A T32A",
    "class-label": "Satisfied"
  },
  {
    "variant-annotation": "A27C G42A",
    "class-label": "Satisfied"
  },
  {
    "variant-annotation": "G28T A35G",
    "class-label": "Satisfied"
  },
  {
    "variant-annotation": "A24G A29G",
    "class-label": "Satisfied"
  },
  {
    "variant-annotation": "T25A A27G",
    "class-label": "Satisfied"
  },
  {
    "variant-annotation": "A24C A30T",
    "class-label": "Satisfied"
  },
  {
    "variant-annotation": "A24T T32A",
    "class-label": "Not satisfied"
  },
  {
    "variant-annotation": "A35T T36A",
    "class-label": "Satisfied"
  },
  {
    "variant-annotation": "G33T A43T",
    "class-label": "Satisfied"
  },
  {
    "variant-annotation": "A27G A29T",
    "class-label": "Satisfied"
  },
  {
    "variant-annotation": "G33A",
    "class-label": "Satisfied"
  },
  {
    "variant-annotation": "C26T A29C",
    "class-label": "Satisfied"
  },
  {
    "variant-annotation": "A30T G42C",
    "class-label": "Not satisfied"
  },
  {
    "variant-annotation": "A30G T36C",
    "class-label": "Satisfied"
  },
  {
    "variant-annotation": "T23A T32A",
    "class-label": "Not satisfied"
  },
  {
    "variant-annotation": "C26T A35T",
    "class-label": "Not satisfied"
  },
  {
    "variant-annotation": "G34T A44C",
    "class-label": "Not satisfied"
  },
  {
    "variant-annotation": "A29C A43C",
    "class-label": "Satisfied"
  },
  {
    "variant-annotation": "C26A G42A",
    "class-label": "Not satisfied"
  },
  {
    "variant-annotation": "C26G A44G",
    "class-label": "Satisfied"
  },
  {
    "variant-annotation": "A24G C26T",
    "class-label": "Not satisfied"
  },
  {
    "variant-annotation": "T23C T25G",
    "class-label": "Not satisfied"
  },
  {
    "variant-annotation": "A24T A30C",
    "class-label": "Not satisfied"
  },
  {
    "variant-annotation": "T25A A31G",
    "class-label": "Satisfied"
  },
  {
    "variant-annotation": "A29G T36A",
    "class-label": "Satisfied"
  },
  {
    "variant-annotation": "T32G A43C",
    "class-label": "Not satisfied"
  },
  {
    "variant-annotation": "A24C T36A",
    "class-label": "Satisfied"
  },
  {
    "variant-annotation": "A30G A43G",
    "class-label": "Satisfied"
  },
  {
    "variant-annotation": "G28A T36G",
    "class-label": "Satisfied"
  },
  {
    "variant-annotation": "G33A G34C",
    "class-label": "Not satisfied"
  },
  {
    "variant-annotation": "A30G T32G",
    "class-label": "Satisfied"
  },
  {
    "variant-annotation": "G37T A44G",
    "class-label": "Not satisfied"
  },
  {
    "variant-annotation": "A43C A44C",
    "class-label": "Not satisfied"
  },
  {
    "variant-annotation": "C26T A35G",
    "class-label": "Satisfied"
  },
  {
    "variant-annotation": "G28A G33A",
    "class-label": "Satisfied"
  },
  {
    "variant-annotation": "T25C A44G",
    "class-label": "Satisfied"
  },
  {
    "variant-annotation": "T25C A44C",
    "class-label": "Not satisfied"
  },
  {
    "variant-annotation": "A30G A35T",
    "class-label": "Satisfied"
  },
  {
    "variant-annotation": "G28C A30T",
    "class-label": "Satisfied"
  },
  {
    "variant-annotation": "A31C T32A",
    "class-label": "Satisfied"
  }
]
